Data origin: patent US20260116921A1

- assayed_target: IL-23R (Homo sapiens, UniProt Q5VWK5)
- Sequence (Q5VWK5 24-629): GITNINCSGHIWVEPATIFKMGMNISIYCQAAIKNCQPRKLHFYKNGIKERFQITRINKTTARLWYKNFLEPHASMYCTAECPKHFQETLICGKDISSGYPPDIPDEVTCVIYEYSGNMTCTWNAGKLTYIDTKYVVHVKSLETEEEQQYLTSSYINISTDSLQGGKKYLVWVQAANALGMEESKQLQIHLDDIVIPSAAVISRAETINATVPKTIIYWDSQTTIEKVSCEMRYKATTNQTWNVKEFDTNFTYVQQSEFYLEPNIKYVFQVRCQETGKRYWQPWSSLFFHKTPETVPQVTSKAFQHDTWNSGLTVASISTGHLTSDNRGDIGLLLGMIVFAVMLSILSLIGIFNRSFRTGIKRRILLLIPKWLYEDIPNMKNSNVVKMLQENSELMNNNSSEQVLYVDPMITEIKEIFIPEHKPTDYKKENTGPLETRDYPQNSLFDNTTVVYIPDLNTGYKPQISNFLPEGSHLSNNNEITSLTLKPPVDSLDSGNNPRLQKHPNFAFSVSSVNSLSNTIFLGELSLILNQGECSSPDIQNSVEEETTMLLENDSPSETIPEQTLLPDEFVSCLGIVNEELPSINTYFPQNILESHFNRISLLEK
- method_description: DB cells IL23R pSTAT3 cell assay (pStat3 HTRF)
- Assay type: cell-based
- measurement_setup: Table E3; DB cells, IL-23 0.5 nM, 30 minutes at 37° C.; read-out: pStat3 HTRF (IC50)
pIC50: −log10 of the molar value. Bridge positions count the residues as written; N and C are the ends. Square brackets hold non-standard residues; d marks the D form. Peptide text beside a SMILES is read from it. Trp(7-Me) = Cc1cccc2c(C[C@H](N)C(=O)O)c[nH]c12; 2Nal = N[C@@H](Cc1ccc2ccccc2c1)C(=O)O; AEF = NCCOc1ccc(C[C@H](N)C(=O)O)cc1; Cit = NC(=O)NCCC[C@H](N)C(=O)O; Pen = CC(C)(S)[C@H](N)C(=O)O; αMeK = C[C@](N)(CCCCN)C(=O)O; Aib = CC(C)(N)C(=O)O
Measured pIC50 accompanies every entry in the list below.

>>> result("CC(=O)NCCCC[C@@H]1NC(=O)[C@H](Cc2c[nH]c3c(C)cccc23)NC(=O)[C@H]([C@@H](C)O)NC(=O)[C@H](CC(N)=O)NC(=O)[C@@H](NC(C)=O)C(C)(C)SSC(C)(C)[C@@H](C(=O)N[C@@H](Cc2ccc(OCCN)cc2)C(=O)N[C@@H](Cc2ccc3ccccc3c2)C(=O)N[C@@](C)(CCCCN)C(=O)N[C@@H](CCCCNC(C)=O)C(=O)N[C@@H](CC(N)=O)C(=O)N[C@@H](CCCNC(N)=O)C(N)=O)NC1=O [compound 249]")
"> 9.00"

Exam item: Item under review: CC(=O)NCCCC[C@H](NC(=O)[C@](C)(CCCCN)NC(=O)[C@H](Cc1ccc2ccccc2c1)NC(=O)[C@H](Cc1ccc(OCCN)cc1)NC(=O)[C@H]1NC(=O)[C@H](CCCNC(N)=O)NC(=O)[C@H](Cc2c[nH]c3c(C)cccc23)NC(=O)[C@H]([C@@H](C)O)NC(=O)[C@H](CC(N)=O)NC(=O)[C@@H](NC(C)=O)C(C)(C)SSC1(C)C)C(=O)N[C@@H](CC(N)=O)C(=O)NC(C)(C)C(=O)N[C@H](CCCCN)C(N)=O [compound 344] (Ac-[Pen]NT[Trp(7-Me)][Cit][Pen][AEF][2Nal][αMeK]K(Ac)N[Aib][dK]-NH2; disulfide 1-6) . Reported pIC50?
Marked response: > 9.00

Exam item: Also, CC(=O)NCCCC[C@H](NC(=O)[C@](C)(CCCCN)NC(=O)[C@H](Cc1ccc2ccccc2c1)NC(=O)[C@H](Cc1ccc(OCCN)cc1)NC(=O)[C@H]1NC(=O)[C@H](CCC(N)=O)NC(=O)[C@H](Cc2c(C(C)(C)C)[nH]c3c(C(C)(C)C)cc(C(C)(C)C)cc23)NC(=O)[C@H]([C@@H](C)O)NC(=O)[C@H](CC(N)=O)NC(=O)[C@@H](NC(C)=O)C(C)(C)SSC1(C)C)C(=O)N[C@@H](CC(N)=O)C(=O)NCCC(N)=O [compound 233] please.
Marked response: < 7.00

Exam item: Also, COc1cccc2[nH]cc(C[C@@H]3NC(=O)[C@H]([C@@H](C)O)NC(=O)[C@H](CC(N)=O)NC(=O)[C@@H](NC(C)=O)C(C)(C)SSC(C)(C)[C@@H](C(=O)N[C@@H](Cc4ccc(OCCN)cc4)C(=O)N[C@@H](Cc4ccc5ccccc5c4)C(=O)N[C@@](C)(CCCCN)C(=O)N[C@@H](CCCCNC(C)=O)C(=O)N[C@@H](CC(N)=O)C(=O)NCCC(N)=O)NC(=O)[C@H](CCC(N)=O)NC3=O)c12 [compound 229] please.
Marked response: 7.00 to 8.00

Exam item: Also, CC(=O)NCCCC[C@@H]1NC(=O)[C@H](Cc2c[nH]c3c(C)cccc23)NC(=O)[C@H]([C@@H](C)O)NC(=O)[C@H](CC(N)=O)NC(=O)[C@@H](NC(C)=O)C(C)(C)SSC(C)(C)[C@@H](C(=O)N[C@@H](Cc2ccc(OCCN)cc2)C(=O)N[C@@H](Cc2ccc3ccccc3c2)C(=O)N[C@@](C)(CCCCN)C(=O)N[C@@H](CCCCNC(C)=O)C(=O)N[C@@H](CC(N)=O)C(=O)N2CCC[C@H]2C(N)=O)NC1=O [compound 253] please.
Marked response: 8.00 to 9.00
